Values were extracted from ChEMBL document CHEMBL4808148.

Target Entity: Protein deacetylase HDAC6 (Homo sapiens)
Sequence (whole entry): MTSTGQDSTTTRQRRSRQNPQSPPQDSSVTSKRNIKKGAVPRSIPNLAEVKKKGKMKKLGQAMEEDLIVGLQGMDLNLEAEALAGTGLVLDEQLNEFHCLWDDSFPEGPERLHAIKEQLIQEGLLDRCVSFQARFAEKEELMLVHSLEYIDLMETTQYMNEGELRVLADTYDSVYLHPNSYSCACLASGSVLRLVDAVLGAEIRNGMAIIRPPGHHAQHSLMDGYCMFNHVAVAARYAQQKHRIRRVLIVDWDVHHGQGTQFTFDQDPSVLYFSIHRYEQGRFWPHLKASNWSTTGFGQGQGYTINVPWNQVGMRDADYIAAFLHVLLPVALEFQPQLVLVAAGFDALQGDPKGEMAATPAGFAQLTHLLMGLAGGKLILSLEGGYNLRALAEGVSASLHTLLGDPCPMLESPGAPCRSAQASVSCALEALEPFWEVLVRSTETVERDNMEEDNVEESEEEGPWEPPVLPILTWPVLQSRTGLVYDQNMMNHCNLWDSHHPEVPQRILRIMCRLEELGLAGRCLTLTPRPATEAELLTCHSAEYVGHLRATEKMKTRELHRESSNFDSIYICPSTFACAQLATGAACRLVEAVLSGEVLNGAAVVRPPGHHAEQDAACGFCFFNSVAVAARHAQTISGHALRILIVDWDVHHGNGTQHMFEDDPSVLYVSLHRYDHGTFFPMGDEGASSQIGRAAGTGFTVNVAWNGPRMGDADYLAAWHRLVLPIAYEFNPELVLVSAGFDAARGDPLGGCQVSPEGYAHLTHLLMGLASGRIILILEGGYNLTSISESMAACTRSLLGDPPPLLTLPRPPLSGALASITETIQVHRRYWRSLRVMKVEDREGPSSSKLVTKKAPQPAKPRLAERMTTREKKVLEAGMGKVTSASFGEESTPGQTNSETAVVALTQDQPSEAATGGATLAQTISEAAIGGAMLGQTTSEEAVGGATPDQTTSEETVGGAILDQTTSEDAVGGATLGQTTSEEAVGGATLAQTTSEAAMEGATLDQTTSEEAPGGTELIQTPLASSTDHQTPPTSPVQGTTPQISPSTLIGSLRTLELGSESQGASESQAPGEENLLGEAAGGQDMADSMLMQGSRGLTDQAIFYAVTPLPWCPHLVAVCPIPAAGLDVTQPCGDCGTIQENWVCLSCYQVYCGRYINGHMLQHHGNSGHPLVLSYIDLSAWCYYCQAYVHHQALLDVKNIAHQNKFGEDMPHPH
Condition Parameters: at 10 µM
# cutoff 80% applies to inhibition; >= gives 1.0, < gives 0.0

Compound: Nc1nccc(/C=C/c2ccccc2)n1
Target Entity: Protein deacetylase HDAC6 (Homo sapiens)
Assigned Category: 1.0

Q. Could you verify whether the entry `c1ccc2c(c1)Nc1ccccc1S2` shows inhibition of no less than 80%?
A. 0.0

----------
Target Entity: Protein deacetylase HDAC6 (Homo sapiens)
Condition Parameters: at 10 µM
Readout Type: inhibition
Please provide the amount together with its unit, number first.

Check out these entries, answers already filled in.
Compound: c1ccc2sc(SNC3CCCCC3)nc2c1
Target Entity: Protein deacetylase HDAC6 (Homo sapiens)
inhibition: 23.2%
--
Compound: COc1ccc2[nH]c(C(=O)c3ccccc3)cc2c1
Target Entity: Protein deacetylase HDAC6 (Homo sapiens)
inhibition: 103%
--
Compound: O=C(/C=C/c1ccc(O)cc1)c1ccc(O)cc1O
Target Entity: Protein deacetylase HDAC6 (Homo sapiens)
inhibition: 97.8%

Q. Item: `O=C(NO)c1ccc(O)c(O)c1` Test system: Protein deacetylase HDAC6 (Homo sapiens) Read-out: inhibition Value: ?
A. 76.4%

----------
Target Entity: UniProt:Q9UBN7
Condition Parameters: at 10 µM
# inhibition per record follows
The response must be a number in % with no trailing unit.

Some entries whose results are on file:
Compound: Nc1nc(N)c(N=O)c(OCC2CCCCC2)n1
Target Entity: UniProt:Q9UBN7
inhibition (%): 83.5
//
Compound: Cc1cc(O)c2c(c1)C(=O)c1cc(O)cc(O)c1C2=O [EMODIN]
Target Entity: UniProt:Q9UBN7
inhibition (%): 80.2
//
Compound: NS(=O)(=O)c1nn2cc(-c3ccccc3)nc2s1
Target Entity: UniProt:Q9UBN7
inhibition (%): 81.9
//
Compound: CN(C)c1ccc(C(=C2C=CC(=[N+](C)C)C=C2)c2ccc(N(C)C)cc2)cc1 [GENTIAN VIOLET]
Target Entity: UniProt:Q9UBN7
inhibition (%): 77.3

# next compound below
Q. If you can, please state the reported inhibition value of `Cc1ccc(NC(=O)c2ccc(CN3CCN(C)CC3)cc2)cc1Nc1nc(-c2cccnc2)cs1` .
A. 22.6

----------
Listed here are molecules together with their documented pIC50.
Target Entity: Protein deacetylase HDAC6 (Homo sapiens, UniProt Q9UBN7)
Expect pIC50 as a plain number equal to -log10 of the molar concentration.

# example entries with known answers
Compound String: CN(C)Cc1ccc(S(=O)(=O)n2ccc(/C=C/C(=O)NO)c2)cc1
pIC50: 7.31
//
Compound String: c1ccc2c(c1)CCC[C@H]2Nc1nc2ccccc2[nH]1
pIC50: 5.86
//
Compound String: O=C(/C=C/c1cccc(S(=O)(=O)Nc2ccccc2)c1)NO
pIC50: 7.40

Q. Form entry - test system: Protein deacetylase HDAC6 (Homo sapiens, UniProt Q9UBN7); read-out: pIC50; molecule: `OCCN1CCN(CC/C=C2/c3ccccc3Sc3ccc(Cl)cc32)CC1`
A. 5.47

----------
Target Entity: Protein deacetylase HDAC6 (Homo sapiens) (UniProt Q9UBN7)
Sequence (whole entry): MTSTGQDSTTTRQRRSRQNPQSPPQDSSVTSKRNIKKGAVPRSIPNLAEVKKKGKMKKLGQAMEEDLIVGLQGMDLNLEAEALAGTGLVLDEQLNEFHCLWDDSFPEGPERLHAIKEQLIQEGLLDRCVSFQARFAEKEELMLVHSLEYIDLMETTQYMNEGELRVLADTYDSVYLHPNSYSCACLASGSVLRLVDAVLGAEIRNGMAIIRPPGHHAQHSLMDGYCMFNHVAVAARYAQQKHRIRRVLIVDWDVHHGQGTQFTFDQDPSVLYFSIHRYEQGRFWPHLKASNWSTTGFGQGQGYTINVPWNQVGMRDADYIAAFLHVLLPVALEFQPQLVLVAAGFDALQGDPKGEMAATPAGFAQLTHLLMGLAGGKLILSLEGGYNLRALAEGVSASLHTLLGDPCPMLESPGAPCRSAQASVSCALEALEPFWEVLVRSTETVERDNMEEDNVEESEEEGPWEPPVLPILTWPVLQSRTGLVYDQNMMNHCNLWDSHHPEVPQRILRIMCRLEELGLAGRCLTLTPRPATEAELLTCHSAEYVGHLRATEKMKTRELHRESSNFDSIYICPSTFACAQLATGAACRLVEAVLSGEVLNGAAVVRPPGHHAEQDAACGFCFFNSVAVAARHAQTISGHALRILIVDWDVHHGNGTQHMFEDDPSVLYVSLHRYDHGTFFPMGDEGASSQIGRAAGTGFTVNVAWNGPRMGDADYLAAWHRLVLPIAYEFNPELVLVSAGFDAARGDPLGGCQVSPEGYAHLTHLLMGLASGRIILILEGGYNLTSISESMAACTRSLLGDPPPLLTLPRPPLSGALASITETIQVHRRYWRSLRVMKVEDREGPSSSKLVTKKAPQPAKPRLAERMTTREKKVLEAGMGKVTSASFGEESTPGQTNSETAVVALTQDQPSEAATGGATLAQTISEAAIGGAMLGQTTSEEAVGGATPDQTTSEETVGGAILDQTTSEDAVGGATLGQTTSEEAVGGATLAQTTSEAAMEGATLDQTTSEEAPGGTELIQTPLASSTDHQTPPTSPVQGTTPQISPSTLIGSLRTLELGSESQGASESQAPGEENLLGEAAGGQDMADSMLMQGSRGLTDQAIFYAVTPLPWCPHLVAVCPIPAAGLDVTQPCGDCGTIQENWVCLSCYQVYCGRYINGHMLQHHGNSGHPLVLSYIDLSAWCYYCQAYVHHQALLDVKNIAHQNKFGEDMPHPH
Condition Parameters: at 10 µM
Readout Type: inhibition (%)
Entry rule: numbers only, all in %.

These recorded examples may help you get a feel for the data.
Compound: Cc1ccc(NC(=O)c2cccc(N(C)C)c2)cc1NC(=O)c1ccc(O)cc1
Readout Type: inhibition
Unit Info: %
Value Reported: 93.2
//
Compound: CN1CCCN=C1/C=C/c1cccc(O)c1
Readout Type: inhibition
Unit Info: %
Value Reported: 53.6
//
Compound: CN1CCc2c(c3ccccc3n2Cc2ccc(C(=O)NO)cc2)C1
Readout Type: inhibition
Unit Info: %
Value Reported: 99.5
//
Compound: Cc1c(-c2ccc(O)cc2)n(Cc2ccc(OCCN3CCCCCC3)cc2)c2ccc(O)cc12
Readout Type: inhibition
Unit Info: %
Value Reported: 97.7
//
Compound: Cc1nc2ccc(-n3ncc(C(=O)c4cc5ccccc5[nH]4)c3N)cc2[nH]1
Readout Type: inhibition
Unit Info: %
Value Reported: 112

Q. Would you mind telling me what inhibition value was observed for `N#Cc1c(O)c2c(-c3ccc(-c4ccccc4O)cc3)csc2[nH]c1=O` ?
A. 57.7

Q. # get_value(readout='inhibition', item= `COc1cc(/C=C/c2ccc(O)cc2)cc(OC)c1` )
A. 96.7

Q. # input compound: `COc1ccc(C2C(=O)c3ccccc3C2=O)cc1` ; wanted: its inhibition
A. 99.8

Q. Endpoint output: inhibition of O=C(CCCCCCC(=O)Nc1cccnc1)NO [PYROXAMIDE] . Value?
A. 95.9

Q. What value of inhibition has been recorded for this entry: `COc1ccc(-c2coc3cc(O)ccc3c2=O)cc1`
A. 102

Q. Fill in: inhibition of `Cc1c(Nc2ncccc2C(=O)O)cccc1C(F)(F)F` is ___
A. 81.6
